Here the recorded inhibition in vivo at 50 mg/kg is given for each entry.
system: Rattus norvegicus; test: % inhibition against anaphylactic response in rat at dose 50 mg/kg administered orally after 60 min; type: functional; settings: 1 h, route oral
Give your result in % as a bare value.

Molecule: COc1cc2c(cc1OC)C(COCCNCCO)OCCC2 (stereo not given)
Measurement Target: Rattus norvegicus
inhibition in vivo at 50 mg/kg [%]: 0

Quick note, inhibition in vivo at 50 mg/kg for COc1cc2c(cc1OC)C(COCCN1CCN(c3ccccc3OC)CC1)OCCC2 (stereo not given) landed at 100

Quick note, inhibition in vivo at 50 mg/kg for COc1cc2c(cc1OC)C(COCCN1CCN(C)CC1)OCCC2 (stereo not given) landed at 0

Quick note, inhibition in vivo at 50 mg/kg for COc1cc2c(cc1OC)C(COCCN1CCN(c3ccccn3)CC1)OCCC2 (stereo not given) landed at 94

Quick note, inhibition in vivo at 50 mg/kg for COc1cc2c(cc1OC)C(COCCN1CCN(c3ccc(F)cc3)CC1)OCCC2 (stereo not given) landed at 52
